Taken from PubChem BioAssay (NCI).

Tested on: HL-60(TB) leukemia
test-name: NCI tumour cell line growth inhibition, 48 h
quantity-measured: TGI (µM)
Answers are plain numbers, in µM.

For every listed record, write down its TGI.
1. O=C1c2ccccc2-c2c1c1c(NCCCO)nc3ccccc3c1n2Cc1ccccc1
2. CCCCCCCCCCCC1CC(=O)NCCCN(C)CCCCN(C)CCCN1C (stereo not given)

Found:
1. 25.7
2. 5.32

----------
System: A549 NSCLC
test-name: NCI tumour cell line growth inhibition, 48 h
What log10(TGI) was measured for each of the following?
Quick note: numbers are log10 of TGI, with µM as the unit.

Previously resolved entries follow.
CCCCCCCCCCCCCCCCCCOCC(COCCOCC[N+]1(CCCCCC(=O)[O-])CCCC1)Oc1ncccn1 (stereo unspecified): 1.30
CC(=O)n1nc(-c2ccccc2)n(/N=C/c2ccc([N+](=O)[O-])o2)c1=O: 1.40
Cc1c(C)c(CC(=O)N2CC2)c(C)c(C)c1CC(=O)N1CC1: 1.70
C=C1C(=O)C23C(O)C1CC[C@H]2C12CCCC(C)(COC(C)=O)[C@H]1[C@H](O)[C@]3(O)OC2 (stereo partly specified): 1.00
COc1cccc2c(=O)c3c(sc12)c(NCCCNCCO)nc1ccccc13: 0.49

For every listed record, write down its log10(TGI).
1. N#CC(C#N)=c1c2nsnc2c(=C(C#N)C#N)c2nsnc12
2. CC(C)[O-].CC(C)[O-].CN(CCN(C)Cc1cc(F)cc(F)c1[O-])Cc1cc(F)cc(F)c1[O-].[Ti+4]
3. COc1ccc(C2c3cc4c(cc3OC(NCCO)C2C)OCO4)cc1 (stereo unspecified)
4. O=C1c2ccccc2-c2c1c1c(NCCCO)nc3ccccc3c1n2Cc1ccccc1

Found:
1.01
0.90
1.84
1.88

----------
What TGI was measured for each of the following?
Tested on: DLD-1 colon
test-name: NCI tumour cell line growth inhibition, 48 h

Previously resolved entries follow.
COc1cc(CNc2nc3ccc(C(F)(F)F)cc3nc2-c2ccccc2)cc(OC)c1OC: > 100 µM
CC(C)(C)NCC(COc1ccc([N+](=O)[O-])cc1)OP(c1ccccc1)c1ccccc1 (stereo not given): > 100 µM
COc1ccc2[nH]c(-c3ccc(O)cc3)cc(=O)c2c1: > 100 µM
CCOC(=O)C1(Cc2ccc3ccccc3c2)CCCCC(=O)N1 (stereo not given): > 100 µM
CCCCCCCCCCCCCCCCCCOCC(COCCOCC[N+]1(CCCCCC(=O)[O-])CCCC1)Oc1ncccn1 (stereo not given): 14 µM

For every listed record, write down its TGI.
1. CC(=O)n1c(=O)c2cc3c(=O)n(-c4cccc(C#N)c4)c(=O)c3cc2c1=O
2. COc1ccccc1NC(=O)/C(=C/c1ccccc1)C(C)=O
3. Cc1c(C)c(CC(=O)N2CC2)c(C)c(C)c1CC(=O)N1CC1
4. Cc1c(C(=O)/C=C/c2ccccc2[N+](=O)[O-])[n+](=O)c2ccccc2n1[O-]
5. O=C(CC1(O)C(=O)Nc2c(Cl)ccc(Cl)c21)c1ccc(Cl)cc1Cl (stereo not given)

Found:
> 100 µM
> 100 µM
56.5 µM
17.9 µM
> 100 µM

----------
System: SN12C renal
test-name: NCI tumour cell line growth inhibition, 48 h
quantity-measured: TGI

Previously resolved entries follow.
Cc1c(C(=O)/C=C/c2ccccc2[N+](=O)[O-])[n+](=O)c2ccccc2n1[O-]: 18.6 µM
COC(=O)[C@H](Cc1ccccc1)NC(=O)N(CCC#N)CCN(C(=O)N[C@@H](Cc1ccccc1)C(=O)OC)c1ccccc1: 89 µM
CC1=NN(C(=O)c2ccncc2)C(=O)C1N=Nc1ccc(F)cc1 (configuration not stated): > 100 µM
CON(C)C(=O)C1CCCO1 (configuration not stated): > 100 µM
C=CCNC(=O)N(CCC)CCCC(NC(C)=O)C(=O)NCc1ccccc1 (configuration not stated): > 100 µM
Cc1c(C)c(CC(=O)N2CC2)c(C)c(C)c1CC(=O)N1CC1: > 56.7 µM
O=C(O)/C=C\C(=O)Nc1ccc(S(=O)(=O)c2ccc(NC(=O)/C=C\C(=O)O)cc2)cc1: > 100 µM
Cc1cccc(/C(Br)=C2/OC(=O)c3ccccc32)c1: > 100 µM
COc1cccc(COc2cc(-n3cnc4ccccc43)sc2C(N)=O)c1: > 25 µM
Nc1ccccc1C(=O)C(Br)C(Br)c1ccc2c(c1)OCO2 (configuration not stated): 72.5 µM

For every listed record, write down its TGI.
1. C=CCN1C(=O)/C(=C/c2ccc(C)cc2)N=C1SC1OC(COC(C)=O)C(OC(C)=O)C(OC(C)=O)C1OC(C)=O (configuration not stated)
2. CN(C)c1ccc(Cc2cc3c(O)ccc(O)c3cc(Cc3ccc(N(C)C)cc3)c2=O)cc1
3. CN(C)c1cccc2c1C(=O)C=CC21c2ccc(N(C)C)c3c(N(C)C)ccc(c23)C(c2ccccc2)C1c1ccccc1 (configuration not stated)

Found:
["> 100 µM", "> 73.2 µM", "32.7 µM"]

For every listed record, write down its TGI.
1. O=C1c2cccc3cccc(c23)C(=O)N1O
2. CCCCCCCCCCCCCCCCCCOCC(COCCOCC[N+]1(CCCCCC(=O)[O-])CCCC1)Oc1ncccn1 (configuration not stated)

Found:
1: > 100 µM; 2: 16.7 µM

For every listed record, write down its TGI.
1. O=C(/C=C/c1ccc2c(c1)OCO2)Cc1nc2ccccc2[nH]c1=O
2. CC1c2ccccc2N=C2SC(=S)N3CCN=C3N21 (configuration not stated)

Found:
["60.2 µM", "> 100 µM"]

----------
Tested on: MALME-3M melanoma
test-name: NCI tumour cell line growth inhibition, 48 h
quantity-measured: TGI

For every listed record, write down its TGI.
1. Cn1c(=O)nc2n(-c3ccc(Cl)c(C(F)(F)F)c3)c3ccccc3nc-2c1=O
2. Cc1ccc(NC(=O)/C(Cc2cc(=O)oc3cc(O)ccc23)=N\NC(=O)C[N+](C)(C)C)cc1C
3. CC1(C)N=C2C(=O)c3c([nH]c4ccccc34)[C@]3(C)CCC1CC23 (stereo not given in full)
4. O=C1CS(=O)(=O)C(c2cccc(Oc3ccccc3)c2)N1c1cc(Cl)ccc1Cl (stereo not given)
5. CCOC(=O)NC(Nc1c(F)c(F)c(F)c(F)c1F)(C(F)(F)F)C(F)(F)F

Found:
34.7 µM
> 100 µM
> 6.25 µM
> 100 µM
> 100 µM

----------
Test system: ACHN renal
test-name: NCI tumour cell line growth inhibition, 48 h
quantity-measured: GI50

Previously resolved entries follow.
COC(=O)c1ccc2c(c1)C(=O)c1c-2n(CCCN=[N+]=[N-])c(=O)c2cc([N+](=O)[O-])ccc12: 13 µM
O=[N+]([O-])c1ccc(-c2cc3c(Nc4ccc(Cl)c(C(F)(F)F)c4)ncnc3s2)cc1: 2.42 µM
CCOC(=O)N1CCN(CCCCCOc2ccccc2C2CCCCC2)CC1: 10.6 µM
O=C(c1cccs1)C1NO[N+]([O-])=C1c1cccs1 (centres undefined): 1.85 µM
CCNCCNc1cc(-c2ccc(C#N)cc2)c(C#N)c2nc3ccccc3n12: 2.34 µM

For every listed record, write down its GI50.
1. CC(=O)[CH-]C(=O)c1ccccc1.CC(=O)[CH-]C(=O)c1ccccc1.CC1(C)OCC(C2OC3OC(C)(C)OC3C2[O-])O1.CC[O-].[Ti+4] (centres undefined)
2. N.N.N.N.N.O=S(=O)([O-])S(=O)(=O)[O-].[Co+3]
3. CC(C)[O-].CC(C)[O-].CN(CCN(C)Cc1cc(F)cc(F)c1[O-])Cc1cc(F)cc(F)c1[O-].[Ti+4]
4. COc1cccc(COc2cc(-n3cnc4ccccc43)sc2C(N)=O)c1

Found:
1: 17.3 µM; 2: > 100 µM; 3: 1 µM; 4: > 25 µM

----------
Tested on: OVCAR-5 ovarian
test-name: NCI tumour cell line growth inhibition, 48 h
quantity-measured: TGI

Previously resolved entries follow.
C[C@]12CC[C@@H]3c4ccc(O)cc4CC[C@H]3[C@@H]1C/C(=C\c1ccc(C#N)cc1)C2=O: > 100 µM
O=C1/C(=C/c2ccc([N+](=O)[O-])cc2)COc2ccc(O)cc21: 33.2 µM
O=C(OCC1OC(n2nc(Cn3nnc(-c4cccnc4)n3)n(-c3cccc4ccccc34)c2=S)C(OC(=O)c2ccccc2)C1OC(=O)c1ccccc1)c1ccccc1 (stereo not given): > 100 µM
C=C1C2Oc3ccccc3C1N(c1ccccc1)O2 (stereo not given): > 100 µM

Lookup: Request: TGI, test system OVCAR-5 ovarian, entry CC(C)C(N)C(=O)NC(CCC(=O)NCCCCC(N)C(=O)NCCCNc1ccc([N+](=O)[O-])c2[nH]c3ccccc3c(=O)c12)C(N)=O (stereo not given)
Found: > 100 µM

----------
Tested on: NCI-H23 lung
test-name: NCI tumour cell line growth inhibition, 48 h
quantity-measured: TGI (µM)
Give bare numbers, in µM.

For every listed record, write down its TGI.
1. C[n+]1c(/C=C/c2ccc(O)c3ncccc23)[se]c2ccccc21
2. C=C1C(=O)C23C(O)C1CC[C@H]2C12CCCC(C)(COC(C)=O)[C@H]1[C@H](O)[C@]3(O)OC2 (stereo not given in full)
3. O=C1C2=Nc3ccccc3C(O)(C(=O)O)N2c2ccccc21 (stereo not given)
4. N#CC(C#N)=c1c2nsnc2c(=C(C#N)C#N)c2nsnc12

Found:
1: 37.6; 2: 3.53; 3: 54.3; 4: 3.91
